Data provenance is PubChem BioAssay (NCI).

- Tested on: NCI/ADR-RES ovarian
- PROTOCOL: NCI-60 one-dose screen, 48 h (100 = growth as untreated, 0 = no growth, -100 = all killed)
- MEASUREMENT_SETUP: 10 µM unless noted
This is part of a sample that, as a whole, favours compounds with a hit. Of some 83,000 tested, about 20% had one in any assay.
# binarize growth: threshold 50% inclusive, high side rule met, low side rule not met

Solved cases (4 shown):
>>> assigned_label("CCCCCCCCCN1C(=O)/C(=c2\\sc3n(c2=O)C2C(NN=3)N(CC)C(=O)N2CC)c2ccccc21 (stereo not given)")
"rule not met"
>>> assigned_label("O=C(CC(O)c1ccncc1)c1ccccc1 (stereo not given)")
"rule met"
>>> assigned_label("COc1ccc(NC(=O)CSc2nc3ccccc3c(=O)n2-c2ccccc2C(F)(F)F)c(OC)c1OC")
"rule met"
>>> assigned_label("NCCSC(c1ccccc1)(c1ccccc1)c1ccccc1")
"rule not met"

Next molecule, please.
Has "C/C(=C\c1csc(C)n1)[C@@H]1C[C@@H]2O[C@]2(C)CCC[C@H](C)[C@H](O)[C@@H](C)C(=O)C(C)(C)[C@@H](O)CC(=O)N1" a recorded growth greater than or equal to 50%?
rule not met
